# Read-out: Interleukin-1 alpha (IL1a), IL1A (gene 3552)
# assay name: BSK_LPS_IL1a: BioMAP Diversity Plus: LPS Assay for Interleukin-1 alpha (IL1a) Biomarker Activity (AID 2283080)
# assay conditions: primary human HUVEC with PBMC; actives raise or lower the signal
Activity calls are given as the source filed them. How the source made its calls: active means hit-call score of the fitted dose curve at least 0.9, where 1 is the maximum; inactive means score below 0.9.
Use one of these outcomes when replying: TRUE = active, FALSE = inactive

Incoming: GET /call?item= `O=C1CCC(C2CCCCC2)CC1` returns the recorded outcome of this test.
Outgoing: FALSE

Incoming: GET /call?item= `CCN(Cc1cccnc1)C(=O)c1cccc(Cl)c1[C@]1(C)C(=O)N(Cc2ccc(OC)cc2OC)c2ccc(Cl)cc21` returns the recorded outcome of this test.
Outgoing: TRUE

Incoming: GET /call?item= `OCCO` returns the recorded outcome of this test.
Outgoing: FALSE

Incoming: GET /call?item= `CCCCCCCCCC(=O)O` returns the recorded outcome of this test.
Outgoing: FALSE

Incoming: GET /call?item= `O=C(O)c1ccccc1-n1cc(C(=O)O)c(=O)c2cc(Nc3c(F)cc(F)cc3Cl)c(Cl)cc21` returns the recorded outcome of this test.
Outgoing: FALSE

Incoming: GET /call?item= `CCCCCCCCOc1ccc(C(=O)c2ccccc2)c(O)c1` returns the recorded outcome of this test.
Outgoing: FALSE

====

# Read-out: Pyruvate Dehydrogenase Kinase 4 (PDK4), PDK4 (gene 5166)
# assay name: LTEA_HepaRG_PDK4: Life Technologies and Expression Analysis (LTEA) Assay for Pyruvate Dehydrogenase Kinase 4 (PDK4) using HepaRG (AID 2283525)
# assay conditions: mRNA level, 48 h; actives raise or lower the signal
Activity calls are given as the source filed them. How the source made its calls: active means hit-call score of the fitted dose curve at least 0.9, where 1 is the maximum; inactive means score below 0.9.
Use one of these outcomes when replying: 1 (active), 0 (inactive)

Incoming: GET /call?item= `CC(C)(O)c1ccc(CNC(=O)c2cccnc2Oc2ccc3nonc3c2)cc1` returns the recorded outcome of this test.
Outgoing: 0

Incoming: GET /call?item= `Cc1ccc2oc(CN(Cc3ccccc3)C(=O)Nc3c(F)cc(F)cc3F)c(-c3ccc(Cl)cc3)c2c1` returns the recorded outcome of this test.
Outgoing: 0

Incoming: GET /call?item= OC12N=C(c3ccccc3)SC1Cc1cc(Cl)ccc12 (stereo unspecified) returns the recorded outcome of this test.
Outgoing: 1

Incoming: GET /call?item= `CCCCCCCCOc1ccc(C(=O)c2ccccc2)c(O)c1` returns the recorded outcome of this test.
Outgoing: 0

Incoming: GET /call?item= `CC(C)(c1cc(Br)c(O)c(Br)c1)c1cc(Br)c(O)c(Br)c1` returns the recorded outcome of this test.
Outgoing: 1

Incoming: GET /call?item= `CCN(CC)C(=O)c1cc(S(=O)(=O)Cc2ccccc2)c(N2CCC(c3ccccc3)CC2)cc1N(CC)CCN(C)C` returns the recorded outcome of this test.
Outgoing: 0

Incoming: GET /call?item= `C[C@]12CC[C@@H]3c4ccc(O)cc4CC[C@H]3[C@@H]1CC[C@H]2O` returns the recorded outcome of this test.
Outgoing: 0

Incoming: GET /call?item= `c1ccc2ccccc2c1` returns the recorded outcome of this test.
Outgoing: 0

Incoming: GET /call?item= `CCCCCCCCCCCO` returns the recorded outcome of this test.
Outgoing: 0

Incoming: GET /call?item= `COc1cc(C(=O)NC2CCN(C)CC2)ccc1Nc1ncc2c(n1)N(C1CCCC1)CC(F)(F)C(=O)N2C` returns the recorded outcome of this test.
Outgoing: 1

Incoming: GET /call?item= `CCCCCCCCCC(=O)O` returns the recorded outcome of this test.
Outgoing: 0

====

# assay name: APR_HepG2_CellLoss_72hr: Apredica 72-hour HepG2 Assay for Cell Loss (AID 2282915)
# assay conditions: high-content imaging
Active and inactive are the calls of the source. Rule for the calls: active = hit-call score of the fitted dose curve at least 0.9, where 1 is the maximum; inactive = score below 0.9.
Use one of these outcomes when replying: active, inactive

Incoming: GET /call?item= `CCN(Cc1cccnc1)C(=O)c1cccc(Cl)c1[C@]1(C)C(=O)N(Cc2ccc(OC)cc2OC)c2ccc(Cl)cc21` returns the recorded outcome of this test.
Outgoing: active

Incoming: GET /call?item= `O=C1O[C@H]([C@@H](O)CO)C(O)=C1O` returns the recorded outcome of this test.
Outgoing: active

Incoming: GET /call?item= `Cc1ccc(C(C)C)cc1` returns the recorded outcome of this test.
Outgoing: inactive

Incoming: GET /call?item= `Cc1cc(F)ccc1-c1cc(N2CC[C@@H](O)[C@H]2CO)ncc1N(C)C(=O)C(C)(C)c1cc(C(F)(F)F)cc(C(F)(F)F)c1` returns the recorded outcome of this test.
Outgoing: active

Incoming: GET /call?item= CN1C(=O)N(c2ccccc2Br)Cc2cnc(Nc3ccc4c(c3)OCC(CO)O4)nc21 (stereo unspecified) returns the recorded outcome of this test.
Outgoing: active

Incoming: GET /call?item= `O=c1[nH]sc2ccccc12` returns the recorded outcome of this test.
Outgoing: active

Incoming: GET /call?item= `COc1cccc([C@H](O)C2CCN(CCc3ccc(F)cc3)CC2)c1OC` returns the recorded outcome of this test.
Outgoing: active

Incoming: GET /call?item= `O=C(O)c1ccccc1-n1cc(C(=O)O)c(=O)c2cc(Nc3c(F)cc(F)cc3Cl)c(Cl)cc21` returns the recorded outcome of this test.
Outgoing: inactive

Incoming: GET /call?item= `CO[C@H]1/C=C/O[C@@]2(C)Oc3c(C)c(O)c4c(O)c(c(/C=N/N5CCN(C)CC5)c(O)c4c3C2=O)NC(=O)/C(C)=C\C=C\[C@H](C)[C@H](O)[C@@H](C)[C@@H](O)[C@@H](C)[C@H](OC(C)=O)[C@@H]1C` returns the recorded outcome of this test.
Outgoing: active

Incoming: GET /call?item= `CN(C)c1ccc(C(=C2C=CC(=[N+](C)C)C=C2)c2ccc(N(C)C)cc2)cc1` returns the recorded outcome of this test.
Outgoing: active

Incoming: GET /call?item= `Cc1cccc2ccccc12` returns the recorded outcome of this test.
Outgoing: inactive

Incoming: GET /call?item= `O=CCCCC=O` returns the recorded outcome of this test.
Outgoing: inactive

Incoming: GET /call?item= `NCc1cccc(C2CCN(C(=O)c3ccc(C#Cc4ccccc4F)o3)CC2)c1` returns the recorded outcome of this test.
Outgoing: active

Incoming: GET /call?item= `CCCCCc1ccc(N)cc1` returns the recorded outcome of this test.
Outgoing: inactive

Incoming: GET /call?item= `CC[C@H](NC(=O)c1cc(F)ccc1NS(=O)(=O)c1cccc2cccnc12)c1ccccc1` returns the recorded outcome of this test.
Outgoing: active

Incoming: GET /call?item= `CC1(C)NC(=O)N(c2ccc([N+](=O)[O-])c(C(F)(F)F)c2)C1=O` returns the recorded outcome of this test.
Outgoing: active

Incoming: GET /call?item= `NC(=O)c1nc(-c2cccc(-c3cc(F)ccc3OCC(F)(F)C(F)(F)F)c2)n[nH]1` returns the recorded outcome of this test.
Outgoing: active

Incoming: GET /call?item= `CCCCCCCCCC(=O)O` returns the recorded outcome of this test.
Outgoing: inactive

Incoming: GET /call?item= `O=C1c2ccccc2C(=O)N1CCc1noc(-c2ccc(CN3CCCCCC3)s2)n1` returns the recorded outcome of this test.
Outgoing: inactive

Incoming: GET /call?item= `Cc1oc2c(NC(=O)c3c(Cl)cccc3Cl)cccc2c1C(C)(C)O` returns the recorded outcome of this test.
Outgoing: inactive

Incoming: GET /call?item= `C[C@]12CC[C@@H]3c4ccc(O)cc4CC[C@H]3[C@@H]1CCC2=O` returns the recorded outcome of this test.
Outgoing: inactive

Incoming: GET /call?item= `Oc1ccccc1` returns the recorded outcome of this test.
Outgoing: inactive

Incoming: GET /call?item= `c1ccc2n[nH]nc2c1` returns the recorded outcome of this test.
Outgoing: inactive

Incoming: GET /call?item= `O=c1ccc2ccccc2o1` returns the recorded outcome of this test.
Outgoing: inactive

Incoming: GET /call?item= `Cc1c2ccccc2c(C)c2c1ccc1ccccc12` returns the recorded outcome of this test.
Outgoing: active

Incoming: GET /call?item= `CCCC(=O)OCCC(C)C` returns the recorded outcome of this test.
Outgoing: inactive

Incoming: GET /call?item= `Cc1ccc2oc(CN(Cc3ccccc3)C(=O)Nc3c(F)cc(F)cc3F)c(-c3ccc(Cl)cc3)c2c1` returns the recorded outcome of this test.
Outgoing: inactive

Incoming: GET /call?item= `Cc1cc2c(cc1C(F)(F)F)N(C(=O)Nc1ccc(Oc3cccnc3C)nc1)CC2` returns the recorded outcome of this test.
Outgoing: active

Incoming: GET /call?item= `CCCCCCCC[Si](OCC)(OCC)OCC` returns the recorded outcome of this test.
Outgoing: active

Incoming: GET /call?item= `c1ccc(C[n+]2cccc3ccccc32)cc1` returns the recorded outcome of this test.
Outgoing: active

Incoming: GET /call?item= `CCCCCCCCN(C)CCCCCCCC` returns the recorded outcome of this test.
Outgoing: inactive

Incoming: GET /call?item= `c1ccc2ccccc2c1` returns the recorded outcome of this test.
Outgoing: active

Incoming: GET /call?item= `OCCO` returns the recorded outcome of this test.
Outgoing: inactive

Incoming: GET /call?item= `CN(C)C(=O)C1(N2CCCCC2)CCN(CC[C@@]2(c3ccc(Cl)c(Cl)c3)CN(C(=O)c3ccccc3)CCO2)CC1` returns the recorded outcome of this test.
Outgoing: active

Incoming: GET /call?item= `Clc1cc(Cl)c2c(c1)N=C1CCCCCN1C2` returns the recorded outcome of this test.
Outgoing: inactive

Incoming: GET /call?item= `CC(C)(C)c1csc(-c2cc3cc(OCc4ccccc4CC(=O)O)ccc3o2)n1` returns the recorded outcome of this test.
Outgoing: inactive

Incoming: GET /call?item= COCC(C)OCC(C)OCC(C)O (stereo unspecified) returns the recorded outcome of this test.
Outgoing: inactive

Incoming: GET /call?item= `CCCCCCCCOc1ccc(C(=O)c2ccccc2)c(O)c1` returns the recorded outcome of this test.
Outgoing: active

Incoming: GET /call?item= `CC(C)(O)c1ccc(CNC(=O)c2cccnc2Oc2ccc3nonc3c2)cc1` returns the recorded outcome of this test.
Outgoing: inactive

Incoming: GET /call?item= `CCCCCCCCOC(=O)c1cc(O)c(O)c(O)c1` returns the recorded outcome of this test.
Outgoing: active

Incoming: GET /call?item= `COc1ccc2cc(S(=O)(=O)N[C@H](CC(=O)N[C@H](Cc3ccc(CN4[C@H](C)CCC[C@@H]4C)cc3)C(=O)N(C)C(C)C)c3ccc4c(c3)OCO4)ccc2c1` returns the recorded outcome of this test.
Outgoing: active

Incoming: GET /call?item= `COc1cc(C(=O)NC2CCN(C)CC2)ccc1Nc1ncc2c(n1)N(C1CCCC1)CC(F)(F)C(=O)N2C` returns the recorded outcome of this test.
Outgoing: inactive

Incoming: GET /call?item= `O=C(OCCCCCCOC(=O)c1ccccc1)c1ccccc1` returns the recorded outcome of this test.
Outgoing: inactive

Incoming: GET /call?item= `O=C(Nc1ccc(Cl)cc1)Nc1ccc(Cl)c(Cl)c1` returns the recorded outcome of this test.
Outgoing: active

Incoming: GET /call?item= `Cc1ncc(CO)c(CO)c1O` returns the recorded outcome of this test.
Outgoing: inactive

Incoming: GET /call?item= `CCCCCCCCCCCO` returns the recorded outcome of this test.
Outgoing: active
